target: L-type calcium channel (Rattus norvegicus); construct: membrane fragments of rat cardiac muscle; from tissue; host or cells: rat cardiac muscle membranes; test: Competition binding of [3H]nitrendipine to membrane fragments of rat cardiac muscle; details: [3H]nitrendipine, rat cardiac muscle membrane fragments, L-type calcium channel
Sequence (P22002 whole entry, other chains not shown, the tested form may be a part): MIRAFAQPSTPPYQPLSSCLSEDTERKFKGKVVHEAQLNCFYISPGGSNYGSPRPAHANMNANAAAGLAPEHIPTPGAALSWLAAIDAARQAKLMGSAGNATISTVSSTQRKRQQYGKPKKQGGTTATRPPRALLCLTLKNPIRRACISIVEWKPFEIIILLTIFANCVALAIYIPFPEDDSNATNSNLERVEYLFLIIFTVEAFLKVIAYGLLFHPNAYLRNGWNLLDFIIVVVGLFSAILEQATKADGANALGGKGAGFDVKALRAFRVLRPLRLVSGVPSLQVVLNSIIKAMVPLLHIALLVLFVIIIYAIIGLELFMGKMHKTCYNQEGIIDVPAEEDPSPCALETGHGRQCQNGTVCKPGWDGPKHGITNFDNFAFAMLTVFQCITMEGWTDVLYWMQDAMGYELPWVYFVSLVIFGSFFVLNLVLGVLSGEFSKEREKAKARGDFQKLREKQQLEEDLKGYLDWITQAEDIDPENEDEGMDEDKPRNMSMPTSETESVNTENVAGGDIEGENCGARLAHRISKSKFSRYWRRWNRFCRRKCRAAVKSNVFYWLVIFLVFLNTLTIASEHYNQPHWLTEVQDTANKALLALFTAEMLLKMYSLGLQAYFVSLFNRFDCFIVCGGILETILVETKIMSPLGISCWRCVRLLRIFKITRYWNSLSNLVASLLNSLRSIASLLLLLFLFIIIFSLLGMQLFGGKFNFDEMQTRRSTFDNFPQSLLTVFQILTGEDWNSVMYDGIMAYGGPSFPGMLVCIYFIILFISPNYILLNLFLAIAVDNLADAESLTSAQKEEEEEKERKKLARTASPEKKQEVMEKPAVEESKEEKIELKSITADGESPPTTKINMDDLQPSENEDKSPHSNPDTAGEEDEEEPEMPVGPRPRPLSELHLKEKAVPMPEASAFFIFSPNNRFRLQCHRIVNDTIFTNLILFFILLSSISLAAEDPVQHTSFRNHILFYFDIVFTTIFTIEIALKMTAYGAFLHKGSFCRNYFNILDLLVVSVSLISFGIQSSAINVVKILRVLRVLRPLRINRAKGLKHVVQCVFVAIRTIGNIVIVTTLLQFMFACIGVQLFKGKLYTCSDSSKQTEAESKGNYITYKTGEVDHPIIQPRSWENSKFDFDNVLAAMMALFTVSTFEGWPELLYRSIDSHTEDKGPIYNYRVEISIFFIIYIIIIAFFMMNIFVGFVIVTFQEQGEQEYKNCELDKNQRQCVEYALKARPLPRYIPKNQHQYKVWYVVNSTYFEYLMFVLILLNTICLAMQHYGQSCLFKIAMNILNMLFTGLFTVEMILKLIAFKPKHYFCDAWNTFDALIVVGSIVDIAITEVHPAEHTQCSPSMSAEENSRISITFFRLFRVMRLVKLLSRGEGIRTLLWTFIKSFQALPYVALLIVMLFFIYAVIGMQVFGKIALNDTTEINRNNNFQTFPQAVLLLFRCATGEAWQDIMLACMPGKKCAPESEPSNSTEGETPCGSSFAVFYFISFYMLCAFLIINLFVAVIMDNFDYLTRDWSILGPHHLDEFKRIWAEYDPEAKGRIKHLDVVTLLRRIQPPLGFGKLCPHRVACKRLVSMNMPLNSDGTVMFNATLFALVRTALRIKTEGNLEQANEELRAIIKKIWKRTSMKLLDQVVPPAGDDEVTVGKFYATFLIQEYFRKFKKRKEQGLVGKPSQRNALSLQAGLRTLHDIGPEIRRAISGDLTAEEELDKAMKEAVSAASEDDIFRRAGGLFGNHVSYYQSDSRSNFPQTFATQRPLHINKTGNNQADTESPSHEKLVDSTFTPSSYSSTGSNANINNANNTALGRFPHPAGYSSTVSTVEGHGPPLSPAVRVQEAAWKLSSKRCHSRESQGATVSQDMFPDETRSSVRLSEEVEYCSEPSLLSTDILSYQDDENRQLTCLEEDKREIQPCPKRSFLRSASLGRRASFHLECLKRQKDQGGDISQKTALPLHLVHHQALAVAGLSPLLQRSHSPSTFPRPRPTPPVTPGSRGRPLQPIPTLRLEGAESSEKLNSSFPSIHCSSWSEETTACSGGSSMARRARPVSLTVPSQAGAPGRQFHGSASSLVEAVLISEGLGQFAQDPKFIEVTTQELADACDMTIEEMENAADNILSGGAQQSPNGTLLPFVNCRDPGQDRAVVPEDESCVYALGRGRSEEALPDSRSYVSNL
Sequence (P54290 25-944 partner limits assumed, other chains not shown): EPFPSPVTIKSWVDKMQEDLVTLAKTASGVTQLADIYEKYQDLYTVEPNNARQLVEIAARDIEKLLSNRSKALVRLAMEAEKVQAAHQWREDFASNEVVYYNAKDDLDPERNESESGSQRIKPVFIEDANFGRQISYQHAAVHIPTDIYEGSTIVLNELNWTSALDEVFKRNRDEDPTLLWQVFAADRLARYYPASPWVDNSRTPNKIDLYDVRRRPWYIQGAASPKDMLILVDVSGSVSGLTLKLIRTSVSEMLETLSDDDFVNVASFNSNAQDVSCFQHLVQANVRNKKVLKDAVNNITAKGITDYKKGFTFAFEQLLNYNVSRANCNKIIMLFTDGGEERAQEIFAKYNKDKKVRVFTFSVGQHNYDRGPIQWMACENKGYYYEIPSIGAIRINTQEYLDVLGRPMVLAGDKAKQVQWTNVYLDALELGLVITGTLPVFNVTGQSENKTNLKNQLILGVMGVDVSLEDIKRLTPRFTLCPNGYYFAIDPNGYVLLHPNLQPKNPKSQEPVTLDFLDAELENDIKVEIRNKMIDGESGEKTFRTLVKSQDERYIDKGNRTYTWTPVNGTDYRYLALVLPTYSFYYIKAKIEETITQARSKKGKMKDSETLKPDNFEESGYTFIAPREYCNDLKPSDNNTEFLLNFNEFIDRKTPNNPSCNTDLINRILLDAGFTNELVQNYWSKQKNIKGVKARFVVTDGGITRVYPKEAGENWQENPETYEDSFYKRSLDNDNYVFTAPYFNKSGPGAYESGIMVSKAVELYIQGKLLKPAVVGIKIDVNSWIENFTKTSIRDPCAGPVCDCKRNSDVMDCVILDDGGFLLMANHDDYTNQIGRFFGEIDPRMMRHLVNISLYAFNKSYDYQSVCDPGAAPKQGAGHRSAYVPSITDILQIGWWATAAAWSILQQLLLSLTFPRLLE
Sequence (P54290 945-1091 partner limits assumed, other chains not shown): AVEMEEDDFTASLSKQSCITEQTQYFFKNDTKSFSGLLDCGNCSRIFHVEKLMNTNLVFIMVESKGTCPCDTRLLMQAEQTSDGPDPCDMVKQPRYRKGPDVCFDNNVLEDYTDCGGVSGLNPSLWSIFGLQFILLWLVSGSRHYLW
// label = 1 if pKi Ca is not less than 6, otherwise 0

- molecule: "CCC1=C(C(=O)NC)C(c2ccc([N+](=O)[O-])cc2)C(C(=O)NCCCN2CCC(C#N)(c3ccccc3)CC2)=C(CC)N1 (stereo not drawn) [Example 126]"
  label: 1
- molecule: "CCC1=C(C(N)=O)C(c2ccc([N+](=O)[O-])cc2)C(C(=O)NC2CCN(CCc3c[nH]c4ccccc34)CC2)=CN1CC (stereo not drawn) [Example 122]"
  label: 0
- molecule: "CCC1=C(C(N)=O)C(c2ccc([N+](=O)[O-])cc2)C(C(=O)NC2CCN(CCc3c[nH]c4ccccc34)CC2)=CN1CC (stereo not drawn) [Example 123]"
  label: 0
- molecule: "CCC1=C(C(N)=O)C(c2ccc([N+](=O)[O-])cc2)C(C(=O)NCCCN2CCC(O)(c3ccccc3)CC2)=CN1CC.Cl.O (stereo not drawn) [Example 101]"
  label: 0
- molecule: "COC(=O)C1=C(C)NC2=C(C(=O)N(CCCN3CCC(c4ccccc4)(c4ccccc4)CC3)C2)C1c1ccc([N+](=O)[O-])cc1.Cl.O (stereo not drawn) [Example 91]"
  label: 1
- molecule: "CCOC(=O)C1=C(CNCCCN2CCC(c3ccccc3)(c3ccccc3)CC2)NC(C)=C(C(=O)OC)C1c1ccc([N+](=O)[O-])cc1.Cl.O (stereo not drawn) [Example 90]"
  label: 1

###

molecular target: α2C receptor (Homo sapiens); construct: host or cells: LM(tk-) cells, line L-α2C; test: Competition binding, [3H]rauwolscine, human α2C receptor; details: [3H]rauwolscine, LM(tk-) cell line L-α2C; SEM and n in lines below; read-out: pKi alpha-2 2c (converted)
Sequence (P18825 whole entry): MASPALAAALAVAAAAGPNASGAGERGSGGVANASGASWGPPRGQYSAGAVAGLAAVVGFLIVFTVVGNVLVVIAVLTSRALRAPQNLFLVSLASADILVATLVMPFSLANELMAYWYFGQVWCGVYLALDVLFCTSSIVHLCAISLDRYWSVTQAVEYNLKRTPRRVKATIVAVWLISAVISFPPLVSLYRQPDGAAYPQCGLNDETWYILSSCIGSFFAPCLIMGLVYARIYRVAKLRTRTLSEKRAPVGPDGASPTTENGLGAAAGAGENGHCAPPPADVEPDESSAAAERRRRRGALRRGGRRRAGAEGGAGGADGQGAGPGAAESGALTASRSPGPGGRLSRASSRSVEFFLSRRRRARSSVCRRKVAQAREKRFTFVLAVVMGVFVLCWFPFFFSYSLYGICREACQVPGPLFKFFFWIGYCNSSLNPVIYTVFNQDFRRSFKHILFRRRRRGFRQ
Where a name gives a salt, the structure may show the parent alone.
reportedProperty: log10 of Ki (log10 of the value in nM)

- compound: "COC(=O)C1=C(C)NC(C)=C(C(=O)NCCCN2CCC(c3ccccc3)CC2)C1c1ccc([N+](=O)[O-])cc1 (single isomer, unassigned; (+)) [(+)-45, hydrochloride hemihydrate]"
  measuredResult: 1.35
- compound: "CCC1=C(C(=O)NCCCN2CCC(c3ccccc3)(c3ccccc3)CC2)C(c2ccc([N+](=O)[O-])cc2)C(C(N)=O)=C(C)N1 (centres unmarked) [Example 81, hydrochloride]"
  measuredResult: 2.09
- compound: "COC(=O)C1=C(C)NC(C)=C(C(=O)NCCCN2CCC(c3ccccc3)(c3ccccc3)CC2)C1c1ccc([N+](=O)[O-])c(OC)c1 (centres unmarked)"
  measuredResult: 2.60
- compound: "COC(=O)C1=C(C)NC(C)=C(C(=O)NCCCN2CCc3cc(OC)c(OC)cc3C2)C1c1ccc([N+](=O)[O-])cc1 (centres unmarked) [Example 57, hydrochloride hydrate]"
  measuredResult: 2.20
- compound: "CC1=C(C(=O)NCCCN2CCC(c3ccccc3)(c3ccccc3)CC2)C(c2ccc([N+](=O)[O-])cc2)c2c([nH]c(=O)[nH]c2=O)N1 (centres unmarked)"
  measuredResult: 2.68
- compound: "CC1=C(C(N)=O)C(c2cccc([N+](=O)[O-])c2)C(C(=O)NCCCN2CCC(c3ccccc3)(c3ccccc3)CC2)=C(C)N1 (centres unmarked)"
  measuredResult: 2.68
- compound: "COC(=O)C1=C(C)NC(C)=C(C(=O)NCCCCN2CCC(c3ccccc3)CC2)C1c1ccc([N+](=O)[O-])cc1 (centres unmarked) [Example 3, hydrochloride hydrate]"
  measuredResult: 1.71
- compound: "CCC1=C(C(=O)NCCCN2CCC(c3ccccc3)CC2)C(c2ccc([N+](=O)[O-])cc2)C(C(=O)OC)=C(C)N1 (centres unmarked) [Example 74, hydrochloride hydrate]"
  measuredResult: 1.37
- compound: "COC(=O)C1=C(C)NC(C)=C(C(=O)OCCCN2CCC(c3ccccc3)CC2)C1c1ccc([N+](=O)[O-])cc1 (centres unmarked) [Example 48, hydrochloride hydrate]"
  measuredResult: 2.62
- compound: "CCC1=C(C(=O)NCCCN2CCC(c3ccccc3)(c3ccccc3)CC2)C(c2ccc([N+](=O)[O-])cc2)C(C(=O)OCc2ccccc2)=C(C)N1 (centres unmarked) [Example 4, Hydrochloride Salt, Hydrate]"
  measuredResult: 2.70
- compound: "CC1=C(C(=O)NCCCN2CCC(c3ccccc3)CC2)C(c2ccc([N+](=O)[O-])cc2)c2c([nH]c(=O)[nH]c2=O)N1 (centres unmarked)"
  measuredResult: 2.23
- compound: "COC(=O)C1=C(C)NC(C)=C(C(=O)OCCCN2CCCCC2)C1c1ccc([N+](=O)[O-])cc1 (centres unmarked)"
  measuredResult: 2.82
- compound: "COC(=O)C1=C(C)NC(c2ccoc2)=C(C(=O)NCCCN2CCC(c3ccccc3)(c3ccccc3)CC2)C1c1ccc([N+](=O)[O-])cc1 (centres unmarked) [Example 43, hydrochloride salt]"
  measuredResult: 2.60
- compound: "COC(=O)C1=C(C)NC(C)=C(C(=O)NCCCN2CCC(c3ccccc3)CC2)C1c1ccc([N+](=O)[O-])cc1 (racemic) [(±)-45, hydrochloride hemihydrate]"
  measuredResult: 1.91
- compound: "COC(=O)C1=C(C)NC(C)=C(C(=O)NCCCN2CCC(c3ccccc3)(c3ccccc3)CC2)C1c1cccnc1 (centres unmarked)"
  measuredResult: 3.04
- compound: "COC(=O)C1=C(C)NC(C)=C(C(=O)NCCCN2CCC(c3ccccc3)CC2)C1c1ccc(Cl)c([N+](=O)[O-])c1 (centres unmarked)"
  measuredResult: 1.43
- compound: "CCC1=C(C(=O)NC2CCN(Cc3ccccc3)CC2)C(c2ccc([N+](=O)[O-])cc2)C(C(=O)OC)=C(C)N1 (centres unmarked) [Example 75, hydrochloride]"
  measuredResult: 3.09
- compound: "COC(=O)C1=C(C)NC(C)=C(C(=O)NCCCN2CCC(c3ccccc3)(c3ccccc3)CC2)C1c1ccoc1 (centres unmarked)"
  measuredResult: 2.67
- compound: "COC(=O)C1=C(C)NC(C)=C(C(=O)NCCCN2CCC(c3ccccc3)(c3ccccc3)CC2)C1Cc1ccccc1 (centres unmarked)"
  measuredResult: 2.53
- compound: "COC(=O)C1=C(C)NC(c2ccoc2)=C(C(=O)NCCCN2CCC(c3ccccc3)CC2)C1c1ccc([N+](=O)[O-])cc1 (centres unmarked) [Example 65, hydrochloride hydrate]"
  measuredResult: 1.92

###

target: α1C Human Adrenergic Receptor (Homo sapiens); construct: The entire coding region of α1C (1401 bp); expressed in transfected cells; test: Radioligand binding, [3H]prazosin, cloned human α1C adrenergic receptor; conditions: cloned human α1C receptor, LM(tk−) cell membranes, read-out: pKi alpha-1 1c (converted)
Sequence (P35348 whole entry): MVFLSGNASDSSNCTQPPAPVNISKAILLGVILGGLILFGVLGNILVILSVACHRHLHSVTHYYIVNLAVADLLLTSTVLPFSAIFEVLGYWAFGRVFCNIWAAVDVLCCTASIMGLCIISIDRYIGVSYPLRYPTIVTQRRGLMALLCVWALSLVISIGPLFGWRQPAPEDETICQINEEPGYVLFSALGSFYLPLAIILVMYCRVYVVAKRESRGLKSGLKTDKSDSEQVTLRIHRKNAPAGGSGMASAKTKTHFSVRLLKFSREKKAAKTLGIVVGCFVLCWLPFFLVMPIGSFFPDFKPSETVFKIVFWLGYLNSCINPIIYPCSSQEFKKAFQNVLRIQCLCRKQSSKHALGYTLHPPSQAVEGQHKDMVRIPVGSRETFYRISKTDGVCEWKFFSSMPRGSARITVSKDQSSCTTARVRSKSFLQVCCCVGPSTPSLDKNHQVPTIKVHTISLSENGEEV
Where a name gives a salt, the structure may show the parent alone.
Returns: string. Value is fulfilled if measured Ki is below 10 nM, and not fulfilled if it is greater than or equal to it.

- compound: "CCC1=C(C(=O)NC)C(c2ccc([N+](=O)[O-])cc2)C(C(=O)NCCCN2CCC(C(c3ccccc3)c3ccccc3)CC2)=C(CC)N1 (centres unmarked) [Example 109]"
  label: "not fulfilled"
- compound: "COC(=O)C1=C(C)N(C)C(C)=C(C(=O)OCCCN2CCC(c3ccccc3)(c3ccccc3)CC2)C1c1ccc([N+](=O)[O-])cc1 (centres unmarked) [Example 92, hydrochloride hydrate]"
  label: "fulfilled"
- compound: "CCCC1=C(C(=O)NCC)C(c2ccc([N+](=O)[O-])cc2)C(C(=O)NCCCN2CCC(c3ccccc3)(c3ccccc3)CC2)=C(CCC)N1 (centres unmarked) [Example 159]"
  label: "fulfilled"
- compound: "CCC1=C(C(=O)NC)C(c2ccc([N+](=O)[O-])cc2)C(C(=O)NCCCN2CCC(C(N)=O)(c3ccccc3)CC2)=C(CC)N1 (centres unmarked) [Example 110]"
  label: "not fulfilled"
- compound: "CCC1=C(C(=O)OCCC#N)C(c2ccc([N+](=O)[O-])cc2)C(C(=O)NCCCN2CCC(c3ccccc3)(c3ccccc3)CC2)=C(COC)N1 (centres unmarked) [Example 135]"
  label: "not fulfilled"
- compound: "CNC(=O)C1=C(C)NC(C)=C(C(=O)NCCCN2CCC(c3ccccc3)(c3ccccc3)CC2)C1c1ccc([N+](=O)[O-])cc1 (single isomer, unassigned; (-)) [(−)-119]"
  label: "fulfilled"
- compound: "CCC1=C(C(=O)NCCCN2CCC(c3ccccc3)(c3ccccc3)CC2)C(c2ccc([N+](=O)[O-])cc2)C(C(=O)OC(C)(C)C)=C(COCCN)N1 (centres unmarked) [Example 140]"
  label: "not fulfilled"
- compound: "CCC1=C(C(=O)O)C(c2ccc([N+](=O)[O-])cc2)C(C(=O)NCCCN2CCC(c3ccccc3)(c3ccccc3)CC2)=C(CC)N1 (centres unmarked) [Example 130]"
  label: "not fulfilled"
- compound: "CCC1=C(C(N)=O)C(c2ccc([N+](=O)[O-])cc2)C(C(=O)NCCCN2CCC3(CC2)C(=O)NCN3c2ccccc2)=C(CC)N1 (centres unmarked) [Example 105, hydrochloride hydrate]"
  label: "not fulfilled"
- compound: "CCC1=C(C(N)=O)C(c2ccc([N+](=O)[O-])cc2)C(C(=O)NCCCN2CCC(c3ccccc3)CC2)=C(CC)N1 (centres unmarked) [Example 121]"
  label: "fulfilled"
- compound: "CCC1=C(C(=O)NC)C(c2ccc([N+](=O)[O-])cc2)C(C(=O)NCCCN2CCC(c3ccccc3)(c3ccc(OC)cc3)CC2)=C(CC)N1 (centres unmarked) [Example 107]"
  label: "fulfilled"
- compound: "CCC1=C(C(=O)NC)C(c2ccc([N+](=O)[O-])cc2)C(C(=O)NCCCN2CCC(OC)(c3ccccc3)CC2)=C(CC)N1 (centres unmarked) [Example 108]"
  label: "fulfilled"
- compound: "COc1ccccc1N1CCN(CCCNC(=O)C2=C(C)NC(C)=C(C(N)=O)C2c2ccc([N+](=O)[O-])cc2)CC1 (centres unmarked) [Example 124]"
  label: "fulfilled"
- compound: "CCC1=C(C(=O)O)C(c2ccc([N+](=O)[O-])cc2)C(C(=O)NCCCN2CCC(c3ccccc3)(c3ccccc3)CC2)=C(COC)N1 (centres unmarked) [Example 136]"
  label: "fulfilled"
- compound: "CCNC(=O)C1=C(CC)NC(COCCN=[N+]=[N-])=C(C(=O)NCCCN2CCC(c3ccccc3)(c3ccccc3)CC2)C1c1ccc([N+](=O)[O-])cc1 (centres unmarked) [Example 145]"
  label: "fulfilled"
- compound: "CC1=C(C(=O)OCC[Si](C)(C)C)C(c2ccc([N+](=O)[O-])cc2)C(C(=O)NCCCN2CCC(c3ccccc3)(c3ccccc3)CC2)=C(COCCN=[N+]=[N-])N1 (centres unmarked) [Example 152]"
  label: "not fulfilled"
- compound: "CC1=C(C(=O)NCCCN2CCC(c3ccccc3)(c3ccccc3)CC2)C(c2ccc([N+](=O)[O-])cc2)C(C(=O)OCCC#N)=C(C)N1 (centres unmarked) [Example 160]"
  label: "fulfilled"
- compound: "CC1=C(C(=O)O)C(c2ccc([N+](=O)[O-])cc2)C(C(=O)NCCCN2CCC(c3ccccc3)(c3ccccc3)CC2)=C(COCCN=[N+]=[N-])N1 (centres unmarked) [Example 153]"
  label: "not fulfilled"
- compound: "CC1=C(C(N)=O)C(c2ccc([N+](=O)[O-])cc2)C(C(=O)NCCCN2CCC(c3ccccc3)(c3ccccc3)CC2)=C(COCCN=[N+]=[N-])N1 (centres unmarked) [Example 154]"
  label: "fulfilled"
- compound: "CCC1=C(C(N)=O)C(c2ccc([N+](=O)[O-])cc2)C(C(=O)NCCCN2CCC(c3ccc(OC)cc3)(c3ccc(OC)cc3)CC2)=C(CC)N1 (centres unmarked) [Example 103, hydrochloride]"
  label: "not fulfilled"
- compound: "CNC(=O)C1=C(C)NC(C)=C(C(=O)NCCCN2CCC(c3ccccc3)(c3ccccc3)CC2)C1c1ccc([N+](=O)[O-])cc1 (single isomer, unassigned; (+)) [(+)-119]"
  label: "not fulfilled"
- compound: "CCC1=C(C(N)=O)C(c2ccc([N+](=O)[O-])cc2)C(C(=O)NCCCN2CCN(c3ccccc3OC)CC2)=C(CC)N1 (centres unmarked) [Example 125]"
  label: "fulfilled"
- compound: "CCOC(=O)C1=C(CC(=O)NCCCN2CCC(c3ccccc3)(c3ccccc3)CC2)NC(C)=C(C(=O)OC)C1c1ccc([N+](=O)[O-])cc1 (centres unmarked) [Example 89, fumarate salt]"
  label: "not fulfilled"
